Taken from patent US4788301A.

- system under test: dopamine β-hydroxylase (DBH) (Bos taurus)
- Sequence (P15101 whole entry): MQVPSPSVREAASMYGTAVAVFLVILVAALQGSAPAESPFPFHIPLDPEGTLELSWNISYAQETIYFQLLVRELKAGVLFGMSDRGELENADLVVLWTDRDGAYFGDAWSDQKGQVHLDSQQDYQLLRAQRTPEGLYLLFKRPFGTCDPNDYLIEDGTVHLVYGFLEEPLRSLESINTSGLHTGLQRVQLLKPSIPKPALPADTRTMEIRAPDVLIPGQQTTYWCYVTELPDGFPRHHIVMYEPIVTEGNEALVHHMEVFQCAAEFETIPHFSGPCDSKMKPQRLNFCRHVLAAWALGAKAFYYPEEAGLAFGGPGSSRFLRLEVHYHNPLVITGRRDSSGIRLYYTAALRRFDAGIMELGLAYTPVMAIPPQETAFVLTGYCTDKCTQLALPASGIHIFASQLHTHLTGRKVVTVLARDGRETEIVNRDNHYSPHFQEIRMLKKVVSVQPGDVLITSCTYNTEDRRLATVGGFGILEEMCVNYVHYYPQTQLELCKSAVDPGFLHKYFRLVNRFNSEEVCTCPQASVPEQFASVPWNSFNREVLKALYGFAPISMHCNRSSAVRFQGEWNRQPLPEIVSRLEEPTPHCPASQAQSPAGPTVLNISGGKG
- assay remarks: Dopamine β-hydroxylase (DBH) inhibitory activity in vitro, time-dependent inactivation (Table I)
- run conditions: inhibition constant for inactivation of DBH; tyramine substrate, pH 5, Kitz and Wilson
readout kind: Ki (µM)
Reply with just the number (in µM).

In: Consider the molecule C=C(CN)c1ccsc1 [β-Methylene-3-Thiopheneethanamine, β-methylene-3-thiopheneethanamine] and give its measured Ki.
Out: 2000

In: Data request, read-out Ki, for C=C(CN)c1cccs1 [β-Methylene-2-Thiopheneethanamine, β-methylene-2-thiopheneethanamine]
Out: 2000
